# TARGET SYSTEM: T1, TauC3 (C-terminally truncated tau fragment ending at aspartate 421 of htau40) (human, UniProt P10636 1-738)
# T1 construct: Generated and purified by Genscript; also called Human TauC3; recombinant TauC3 protein
# T1 sequence (P10636 other isoform, or with tags, fused parts or gaps): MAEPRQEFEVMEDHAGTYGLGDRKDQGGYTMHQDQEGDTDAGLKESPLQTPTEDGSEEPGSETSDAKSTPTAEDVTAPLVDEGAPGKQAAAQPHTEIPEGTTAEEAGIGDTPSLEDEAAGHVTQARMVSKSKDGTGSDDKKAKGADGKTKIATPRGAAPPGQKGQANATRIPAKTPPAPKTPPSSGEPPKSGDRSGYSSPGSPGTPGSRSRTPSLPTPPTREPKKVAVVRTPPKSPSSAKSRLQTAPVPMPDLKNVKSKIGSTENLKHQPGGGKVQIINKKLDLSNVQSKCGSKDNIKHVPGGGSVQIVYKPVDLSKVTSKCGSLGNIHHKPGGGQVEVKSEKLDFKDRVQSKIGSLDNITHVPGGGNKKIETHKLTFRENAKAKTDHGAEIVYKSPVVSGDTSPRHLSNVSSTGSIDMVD
# ASSAY OVERVIEW: binding ELISA on coated TauC3, OD650
The following binders are shown together with reported EC50 values.
VALUE KIND: EC50 (nM)

[[record]]
binder = "Tau01 HCKB HuG4K (antibody, V domains shown, human IgG4 kappa (HuG4K)) VH: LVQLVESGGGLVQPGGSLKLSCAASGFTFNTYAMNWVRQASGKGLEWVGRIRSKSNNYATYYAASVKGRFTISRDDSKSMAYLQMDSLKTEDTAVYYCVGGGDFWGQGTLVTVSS VL: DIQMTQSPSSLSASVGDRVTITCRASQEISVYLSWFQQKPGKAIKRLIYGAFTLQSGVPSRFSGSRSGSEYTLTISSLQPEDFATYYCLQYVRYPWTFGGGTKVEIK"
unit_name = "nM"
reported = 0.502

[[record]]
binder = "Tau01 HOKI (antibody, V domains shown, human IgG4 kappa (HuG4K)) VH: LVQVVESGGGLVQPGGSLKLSCAASGFTFNTYAMNWVRQASGKGLEWVARIRSKSNNYATYYAASVKGRFTISRDDSKSMAYLQMDSLKTEDTAVYYCVGGGDFWGQGTLVTVSS VL: DIQMTQSPSSLSASVGDRVTITCRASQEISVYLGWYQQKPGKAPKRLIYGAFKLQSGVPSRFSGSRSGTEYTLTISSLQPEDFATYYCLQYVRYPWTFGGGTKVEIK"
unit_name = "nM"
reported = 0.482

[[record]]
binder = "Tau01 HOKJ (antibody, V domains shown, human IgG4 kappa (HuG4K)) VH: LVQVVESGGGLVQPGGSLKLSCAASGFTFNTYAMNWVRQASGKGLEWVARIRSKSNNYATYYAASVKGRFTISRDDSKSMAYLQMDSLKTEDTAVYYCVGGGDFWGQGTLVTVSS VL: DIQMTQSPSSLSASVGDRVTITCRASQEISVYLGWYQQKPGKAPKRLIYGAFSLQSGVPSRFSGSRSGTEFTLTISSLQPEDFATYYCLQYVRYPWTFGGGTKVEIK"
unit_name = "nM"
reported = 0.556

[[record]]
binder = "Tau01 HOKB (antibody, V domains shown, human IgG4 kappa (HuG4K)) VH: LVQVVESGGGLVQPGGSLKLSCAASGFTFNTYAMNWVRQASGKGLEWVARIRSKSNNYATYYAASVKGRFTISRDDSKSMAYLQMDSLKTEDTAVYYCVGGGDFWGQGTLVTVSS VL: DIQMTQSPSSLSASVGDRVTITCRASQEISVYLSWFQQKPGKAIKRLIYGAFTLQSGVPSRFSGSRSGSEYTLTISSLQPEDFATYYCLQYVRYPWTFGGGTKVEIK"
unit_name = "nM"
reported = 0.51

